Entries and their measured concentration at 2 h follow.
- Test Summary: Plasma concentration in C57BL/6J mouse at 20 mg/kg, po measured at 2 hrs
- Format: ADME, organism-based
Supply the numeric figure in nM, leaving out any unit text.

smiles_input=COc1ccc(/C=C2\CN(C(=O)Cn3ccnn3)Cc3c(C(=O)N[C@H](C)c4ccccc4)nn(-c4ccc(Cl)cc4Cl)c32)cc1 recorded_metric="concentration at 2 h" val=30
smiles_input=COc1ccc(/C=C2\CN(C(=O)Cn3ccnc3)Cc3c(C(=O)N[C@H](C)c4ccccc4)nn(-c4ccc(Cl)cc4Cl)c32)cc1 recorded_metric="concentration at 2 h" val=580
smiles_input=C[C@@H](NC(=O)c1nn(-c2ccc(Cl)cc2Cl)c2c1CN(C(=O)Cn1cnnn1)C/C2=C\c1ccc(F)cc1)c1ccccc1 recorded_metric="concentration at 2 h" val=9190

// moving on: another record for concentration at 2 h
Exercise: Request the reported concentration at 2 h associated with C[C@@H](NC(=O)c1nn(-c2ccc(Cl)cc2)c2c1CN(C(=O)c1nc[nH]n1)C/C2=C\c1ccc(F)cc1)c1ccccc1
Key: 1320

* * *

- Tgt: UniProtKB P34972
- Sequence (P34972 whole entry): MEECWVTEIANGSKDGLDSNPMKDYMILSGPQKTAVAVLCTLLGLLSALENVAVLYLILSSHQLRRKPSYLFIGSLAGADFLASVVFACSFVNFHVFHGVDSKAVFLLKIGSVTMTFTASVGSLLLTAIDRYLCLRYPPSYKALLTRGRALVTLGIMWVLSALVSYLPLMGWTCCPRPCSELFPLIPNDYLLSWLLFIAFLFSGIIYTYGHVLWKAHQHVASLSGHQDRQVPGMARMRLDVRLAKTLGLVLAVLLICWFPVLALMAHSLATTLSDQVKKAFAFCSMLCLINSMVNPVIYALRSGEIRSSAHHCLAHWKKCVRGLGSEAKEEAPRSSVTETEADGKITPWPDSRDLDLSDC
- Test Summary: Inverse agonist activity at human CB2 receptor transfected in HEK293 cells assessed as increase of forskolin-induced cAMP production incubated for 30 mins followed by d2 labeled cAMP addition measured after 60 mins by HTRF assay
Recorded Metric: EC50 (nM)
Supply the numeric figure in nM, leaving out any unit text.

Worked cases, EC50 given:
smiles_input=C[C@@H](NC(=O)c1nn(-c2ccc(Cl)c(Cl)c2)c2c1CN(C(=O)Cn1cnnn1)C/C2=C\c1ccc(F)cc1)c1ccccn1 recorded_metric=EC50 unit_abbrev=nM val=3660
smiles_input=COc1ccc(/C=C2\CN(C(=O)CC(=O)O)Cc3c(C(=O)N[C@H](C)c4ccccn4)nn(-c4ccc(Cl)cc4Cl)c32)cc1 recorded_metric=EC50 unit_abbrev=nM val=1940

// moving on: another record for EC50
Exercise: Request the reported EC50 associated with C[C@@H](NC(=O)c1nn(-c2ccc(Cl)cc2Cl)c2c1CN(C(=O)c1nc[nH]n1)C/C2=C\c1ccc(F)cc1)c1ccccc1
Key: 1310

* * *

Entries and their measured Kp at 4 h follow.
- Test Summary: Ratio of drug level in brain to plasma in C57BL/6J mouse at 20 mg/kg, po measured at 4 hrs
- Assay type: ADME, organism-based
- Conditions Used: read-out: BPR
Kindly provide the number alone.

Exercise: Request the reported Kp at 4 h associated with COc1ccc(/C=C2\CN(C(=O)CS(N)(=O)=O)Cc3c(C(=O)N[C@H](C)c4ccccn4)nn(-c4ccc(Cl)cc4Cl)c32)cc1
Key: 0.04

Exercise: Another: COc1ccc(/C=C2\CN(C(=O)CCS(N)(=O)=O)Cc3c(C(=O)N[C@H](C)c4ccccn4)nn(-c4ccc(Cl)cc4Cl)c32)cc1
Key: 0.04

Exercise: Another: COc1ccc(/C=C2\CN(C(=O)CN)Cc3c(C(=O)N[C@H](C)c4ccccc4)nn(-c4ccc(Cl)cc4Cl)c32)cc1
Key: 0.04
